These entries and their values trace back to the FLAb antibody collection (doi:10.7554/elife.23156).

B1: scFv; the commonest letter at each place (parent)
chain 1: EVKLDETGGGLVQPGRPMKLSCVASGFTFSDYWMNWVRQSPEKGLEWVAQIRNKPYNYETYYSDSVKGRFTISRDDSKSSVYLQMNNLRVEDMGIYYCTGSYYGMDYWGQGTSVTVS
chain 2: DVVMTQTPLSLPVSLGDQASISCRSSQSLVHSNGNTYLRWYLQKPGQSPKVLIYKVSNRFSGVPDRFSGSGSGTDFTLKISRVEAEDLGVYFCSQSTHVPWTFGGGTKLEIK

Variants of: B1
Assay: Kd (Tite-Seq)
Settings: with fluorescein; format: scFv 4-4-20, heavy + light
A collection of variants and their measured Kd

chain 1 D106F Y107D : ≥ 10 µM
chain 1 Y107M G109K : ≥ 10 µM
chain 1 F29R V37P : ≥ 10 µM

Request: Recorded Kd for chain 1 F29E N35T , please?
Result: ≥ 10 µM

Request: Recorded Kd for chain 1 T28C D31Q , please?
Result: 0.0113 µM

Request: Recorded Kd for chain 1 Y102T M105K , please?
Result: 0.00708 µM

Request: Recorded Kd for chain 1 W33R N35Y , please?
Result: ≥ 10 µM

Request: Recorded Kd for chain 1 T28K V37R , please?
Result: 0.195 µM

Request: Recorded Kd for chain 1 Y103C M105G , please?
Result: ≥ 10 µM
